All figures here come from paper PMC8597046.

- METHOD DESCRIPTION: in vivo
- DETAILS: female, New Zealand white (INRA 1777 line), rabbit, in vivo, po
# reported Tmax; entries follow

| SMILES REPRESENTATION | Tmax, h |
| --- | --- |
| Clc1c(Cl)c(Cl)c(Cl)c(Cl)c1Cl | 24 |
| O=C(O)C(F)(F)C(F)(F)C(F)(F)C(F)(F)C(F)(F)C(F)(F)C(F)(F)F | 4.05 |
| Brc1ccc(Oc2ccc(Br)cc2Br)c(Br)c1 | 24 |
| Cl[C@H]1[C@H](Cl)[C@@H](Cl)[C@H](Cl)[C@@H](Cl)[C@@H]1Cl | 24 |
| ClC(Cl)=C(c1ccc(Cl)cc1)c1ccc(Cl)cc1 | 24 |
